- subject.of.test: GLP-1 Receptor (Homo sapiens, UniProt P43220)
- Sequence (P43220 24-463): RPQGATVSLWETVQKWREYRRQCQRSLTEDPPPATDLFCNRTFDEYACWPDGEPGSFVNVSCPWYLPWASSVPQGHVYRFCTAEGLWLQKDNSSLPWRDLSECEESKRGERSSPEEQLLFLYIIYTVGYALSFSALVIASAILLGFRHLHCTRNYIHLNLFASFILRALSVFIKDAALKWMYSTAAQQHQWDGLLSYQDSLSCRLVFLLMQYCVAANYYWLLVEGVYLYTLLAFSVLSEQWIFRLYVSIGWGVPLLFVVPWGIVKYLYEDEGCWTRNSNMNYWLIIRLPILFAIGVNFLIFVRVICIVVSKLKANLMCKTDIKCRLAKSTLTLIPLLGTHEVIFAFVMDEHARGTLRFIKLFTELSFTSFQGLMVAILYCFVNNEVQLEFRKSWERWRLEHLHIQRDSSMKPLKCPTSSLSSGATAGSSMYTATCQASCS
- assay.notes: GLP-1R agonist cAMP stimulation assay
- experimental.parameters: HEK293/CRE-Luc cell line stably expressing the GLP-1 Receptor; 30 min at 37° C.; cAMP dynamic 2 Kit
# Lookup of reported EC50 keyed by entry

# annotated cases, reported EC50 shown
compound	subject.of.test	EC50
C[C@]1(c2ccc(Cl)cc2F)Oc2c(F)ccc(C3CCN(Cc4ncc(-c5nnc(C(F)(F)F)[nH]5)cc4CC4(C#N)CC4)CC3F)c2O1 (single isomer, unassigned) [Example 29]	GLP-1 Receptor (Homo sapiens, UniProt P43220)	< 1 nM
C[C@H]1CN(c2ccc(F)c(OCc3ccc(Cl)cc3F)c2)CCN1Cc1ncc(-c2nnc(C(F)(F)F)[nH]2)cc1CC1(C#N)CC1	GLP-1 Receptor (Homo sapiens, UniProt P43220)	< 1 nM

// query // EC50 lookup, key: CC(c1cc(-c2nnc(C(F)(F)F)[nH]2)cnc1CN1CCC(c2cccc3c2O[C@@](C)(c2ccc(Cl)cc2F)O3)CC1)S(C)(=O)=O (stereo partly drawn)
// result 1 to 100 nM

Recorded values, source patent US20250145596A1.
